Molecular target: Bcr-Abl^T315I (Homo sapiens, UniProt P00519+P11274, T315I)
Experiment: Western blot degradation study in Ba/F3 cells expressed Bcr-Abl^T315I
Type: cell-based
Settings: 100 nmol/L, 24 h treatment, Western blot
EXPERIMENTAL ENDPOINT: DR against Ba/F3 Bcr-Abl^T315I (%) 100 nmol/L
Quick note: give the figure in %, leave out the unit.

// query What does the data say about its DR against Ba/F3 Bcr-Abl^T315I (%) 100 nmol/L? Entry: Cc1ccc(C(=O)Nc2ccc(CN3CCN(CCOCCOCCOc4cccc5c4C(=O)N(C4CCC(=O)NC4=O)C5=O)CC3)c(C(F)(F)F)c2)cc1C#Cc1cnc2[nH]ncc2c1 (centres unmarked)
// result −15.62

// query What does the data say about its DR against Ba/F3 Bcr-Abl^T315I (%) 100 nmol/L? Entry: Cc1ccc(C(=O)Nc2ccc(CN3CCN(CCCCC(=O)Nc4cccc5c4C(=O)N(C4CCC(=O)NC4=O)C5=O)CC3)c(C(F)(F)F)c2)cc1C#Cc1cnc2[nH]ncc2c1 (centres unmarked)
// result 49.84

// query What does the data say about its DR against Ba/F3 Bcr-Abl^T315I (%) 100 nmol/L? Entry: Cc1ccc(C(=O)Nc2ccc(CN3CCN(C)CC3)c(C(F)(F)F)c2)cc1C#Cc1cnc2[nH]ncc2c1 [GZD824, reference compound]
// result 2.59

// query What does the data say about its DR against Ba/F3 Bcr-Abl^T315I (%) 100 nmol/L? Entry: Cc1ccc(C(=O)Nc2ccc(CN3CCN(CCOCCOCCOCCC(=O)Nc4cccc5c4C(=O)N(C4CCC(=O)NC4=O)C5=O)CC3)c(C(F)(F)F)c2)cc1C#Cc1cnc2[nH]ncc2c1 (centres unmarked)
// result 16.86

// query What does the data say about its DR against Ba/F3 Bcr-Abl^T315I (%) 100 nmol/L? Entry: "Cc1ccc(C(=O)Nc2ccc(CN3CCN(CCOCCOCCNC(=O)[C@H](CC(C)C)NC(=O)[C@@H](O)[C@H](N)Cc4ccccc4)CC3)c(C(F)(F)F)c2)cc1C#Cc1cnc2[nH]ncc2c1"
// result −14.92

---

Tested on: Ba/F3 Bcr-Abl^WT
Assay: Antiproliferation cell assay
Assay type: cell-based
Settings: Mus musculus, BaF3, 72 h, read-out: Cellular inhibition IC50 Ba/F3 Bcr-Abl^WT
EXPERIMENTAL ENDPOINT: pIC50
When answering, recall that pIC50 equals minus log10 of the concentration in mol/L, and write that number alone.

// query Observed pIC50 on Ba/F3 Bcr-Abl^WT for Cc1ccc(C(=O)Nc2ccc(CN3CCN(CCOCCOCCC(=O)Nc4cccc5c4CN(C4CCC(=O)NC4=O)C5=O)CC3)c(C(F)(F)F)c2)cc1C#Cc1cnc2[nH]ncc2c1 (stereo not shown) , please.
// result 7.19

// query Observed pIC50 on Ba/F3 Bcr-Abl^WT for Cc1ccc(C(=O)Nc2ccc(CN3CCN(CCCCCCCCC(=O)Nc4cccc5c4C(=O)N(C4CCC(=O)NC4=O)C5=O)CC3)c(C(F)(F)F)c2)cc1C#Cc1cnc2[nH]ncc2c1 (stereo not shown) , please.
// result 8.35

// query Observed pIC50 on Ba/F3 Bcr-Abl^WT for Cc1ccc(C(=O)Nc2ccc(CN3CCN(CCOCCOCCOCCOCCOCCOCCC(=O)Nc4cccc5c4C(=O)N(C4CCC(=O)NC4=O)C5=O)CC3)c(C(F)(F)F)c2)cc1C#Cc1cnc2[nH]ncc2c1 (stereo not shown) , please.
// result 6.97

// query Observed pIC50 on Ba/F3 Bcr-Abl^WT for Cc1ccc(C(=O)Nc2ccc(CN3CCN(CCOCCOCCOCCOCCC(=O)Nc4cccc5c4C(=O)N(C4CCC(=O)NC4=O)C5=O)CC3)c(C(F)(F)F)c2)cc1C#Cc1cnc2[nH]ncc2c1 (stereo not shown) , please.
// result 7.70

// query Observed pIC50 on Ba/F3 Bcr-Abl^WT for Cc1ccc(C(=O)Nc2ccc(CN3CCN(CCCCC(=O)Nc4cccc5c4C(=O)N(C4CCC(=O)NC4=O)C5=O)CC3)c(C(F)(F)F)c2)cc1C#Cc1cnc2[nH]ncc2c1 (stereo not shown) , please.
// result 8.37

// query Observed pIC50 on Ba/F3 Bcr-Abl^WT for Cc1ccc(C(=O)Nc2ccc(CN3CCN(CCOCCOCCC(=O)N[C@H](C(=O)C4C[C@H](O)C[C@H]4C(=O)NCc4ccc(-c5scnc5C)cc4)C(C)(C)C)CC3)c(C(F)(F)F)c2)cc1C#Cc1cnc2[nH]ncc2c1 (stereo partly shown) , please.
// result 6.47

// query Observed pIC50 on Ba/F3 Bcr-Abl^WT for Cc1ccc(C(=O)Nc2ccc(CN3CCN(CCOCCOCCOCCC(=O)Nc4cccc5c4C(=O)N(C4CCC(=O)NC4=O)C5=O)CC3)c(C(F)(F)F)c2)cc1C#Cc1cnc2[nH]ncc2c1 (stereo not shown) , please.
// result 7.97

// query Observed pIC50 on Ba/F3 Bcr-Abl^WT for Cc1ccc(C(=O)Nc2ccc(CN3CCN(CCCCCCCCCCC(=O)Nc4cccc5c4C(=O)N(C4CCC(=O)NC4=O)C5=O)CC3)c(C(F)(F)F)c2)cc1C#Cc1cnc2[nH]ncc2c1 (stereo not shown) , please.
// result 7.44

// query Observed pIC50 on Ba/F3 Bcr-Abl^WT for Cc1ccc(C(=O)Nc2ccc(CN3CCN(C)CC3)c(C(F)(F)F)c2)cc1C#Cc1cnc2[nH]ncc2c1 [GZD824, reference compound] , please.
// result 8.17

// query Observed pIC50 on Ba/F3 Bcr-Abl^WT for Cc1ccc(C(=O)Nc2ccc(CN3CCN(CCCCCCC(=O)Nc4cccc5c4C(=O)N(C4CCC(=O)NC4=O)C5=O)CC3)c(C(F)(F)F)c2)cc1C#Cc1cnc2[nH]ncc2c1 (stereo not shown) , please.
// result 8.38

// query Observed pIC50 on Ba/F3 Bcr-Abl^WT for Cc1ccc(C(=O)Nc2ccc(CN3CCN(CCC(=O)Nc4cccc5c4C(=O)N(C4CCC(=O)NC4=O)C5=O)CC3)c(C(F)(F)F)c2)cc1C#Cc1cnc2[nH]ncc2c1 (stereo not shown) , please.
// result 8.27

// query Observed pIC50 on Ba/F3 Bcr-Abl^WT for Cc1ccc(C(=O)Nc2ccc(CN3CCN(CCOCCOCCC(=O)Nc4cccc5c4C(=O)N(C4CCC(=O)NC4=O)C5=O)CC3)c(C(F)(F)F)c2)cc1C#Cc1cnc2[nH]ncc2c1 (stereo not shown) , please.
// result 8.00

// query Observed pIC50 on Ba/F3 Bcr-Abl^WT for Cc1ccc(C(=O)Nc2ccc(CN3CCN(CCOCCOCCOCCOCCOCCC(=O)Nc4cccc5c4C(=O)N(C4CCC(=O)NC4=O)C5=O)CC3)c(C(F)(F)F)c2)cc1C#Cc1cnc2[nH]ncc2c1 (stereo not shown) , please.
// result 7.84

// query Observed pIC50 on Ba/F3 Bcr-Abl^WT for "Cc1ccc(C(=O)Nc2ccc(CN3CCN(CCOCCOCCNC(=O)[C@H](CC(C)C)NC(=O)[C@@H](O)[C@H](N)Cc4ccccc4)CC3)c(C(F)(F)F)c2)cc1C#Cc1cnc2[nH]ncc2c1" , please.
// result 6.62

// query Observed pIC50 on Ba/F3 Bcr-Abl^WT for Cc1ccc(C(=O)Nc2ccc(CN3CCN(CCCCCCCCCCCCCCC(=O)Nc4cccc5c4C(=O)N(C4CCC(=O)NC4=O)C5=O)CC3)c(C(F)(F)F)c2)cc1C#Cc1cnc2[nH]ncc2c1 (stereo not shown) , please.
// result 6.44

// query Observed pIC50 on Ba/F3 Bcr-Abl^WT for Cc1ccc(C(=O)Nc2ccc(CN3CCN(CCOCCC(=O)Nc4cccc5c4C(=O)N(C4CCC(=O)NC4=O)C5=O)CC3)c(C(F)(F)F)c2)cc1C#Cc1cnc2[nH]ncc2c1 (stereo not shown) , please.
// result 7.68

// query Observed pIC50 on Ba/F3 Bcr-Abl^WT for Cc1ccc(C(=O)Nc2ccc(CN3CCN(CCOCCOCCOc4cccc5c4C(=O)N(C4CCC(=O)NC4=O)C5=O)CC3)c(C(F)(F)F)c2)cc1C#Cc1cnc2[nH]ncc2c1 (stereo not shown) , please.
// result 7.65

// query Observed pIC50 on Ba/F3 Bcr-Abl^WT for Cc1ccc(C(=O)Nc2ccc(CN3CCN(CCCCCC(=O)Nc4cccc5c4C(=O)N(C4CCC(=O)NC4=O)C5=O)CC3)c(C(F)(F)F)c2)cc1C#Cc1cnc2[nH]ncc2c1 (stereo not shown) , please.
// result 8.38

---

Tested on: Ba/F3 Bcr-Abl^T315I
Test: Antiproliferation cell assay
Assay type: cell-based
Conditions: Mus musculus, BaF3, 72 h, read-out: Cellular inhibition IC50 Ba/F3 Bcr-Abl^T315I
EXPERIMENTAL ENDPOINT: pIC50
When answering, recall that pIC50 equals minus log10 of the concentration in mol/L, and write that number alone.

// query What does the data say about its pIC50? Entry: Cc1ccc(C(=O)Nc2ccc(CN3CCN(CCOCCOCCOCCOCCC(=O)Nc4cccc5c4C(=O)N(C4CCC(=O)NC4=O)C5=O)CC3)c(C(F)(F)F)c2)cc1C#Cc1cnc2[nH]ncc2c1 (centres unmarked)
// result 7.02

// query What does the data say about its pIC50? Entry: Cc1ccc(C(=O)Nc2ccc(CN3CCN(CCOCCOCCOCCOCCOCCOCCC(=O)Nc4cccc5c4C(=O)N(C4CCC(=O)NC4=O)C5=O)CC3)c(C(F)(F)F)c2)cc1C#Cc1cnc2[nH]ncc2c1 (centres unmarked)
// result 6.51

// query What does the data say about its pIC50? Entry: Cc1ccc(C(=O)Nc2ccc(CN3CCN(C)CC3)c(C(F)(F)F)c2)cc1C#Cc1cnc2[nH]ncc2c1 [GZD824, reference compound]
// result 7.51

// query What does the data say about its pIC50? Entry: Cc1ccc(C(=O)Nc2ccc(CN3CCN(CCC(=O)Nc4cccc5c4C(=O)N(C4CCC(=O)NC4=O)C5=O)CC3)c(C(F)(F)F)c2)cc1C#Cc1cnc2[nH]ncc2c1 (centres unmarked)
// result 7.18

// query What does the data say about its pIC50? Entry: Cc1ccc(C(=O)Nc2ccc(CN3CCN(CCCCC(=O)Nc4cccc5c4C(=O)N(C4CCC(=O)NC4=O)C5=O)CC3)c(C(F)(F)F)c2)cc1C#Cc1cnc2[nH]ncc2c1 (centres unmarked)
// result 7.60

// query What does the data say about its pIC50? Entry: Cc1ccc(C(=O)Nc2ccc(CN3CCN(CCCCCC(=O)Nc4cccc5c4C(=O)N(C4CCC(=O)NC4=O)C5=O)CC3)c(C(F)(F)F)c2)cc1C#Cc1cnc2[nH]ncc2c1 (centres unmarked)
// result 7.48

// query What does the data say about its pIC50? Entry: Cc1ccc(C(=O)Nc2ccc(CN3CCN(CCOCCC(=O)Nc4cccc5c4C(=O)N(C4CCC(=O)NC4=O)C5=O)CC3)c(C(F)(F)F)c2)cc1C#Cc1cnc2[nH]ncc2c1 (centres unmarked)
// result 7.17

// query What does the data say about its pIC50? Entry: Cc1ccc(C(=O)Nc2ccc(CN3CCN(CCOCCOCCOc4cccc5c4C(=O)N(C4CCC(=O)NC4=O)C5=O)CC3)c(C(F)(F)F)c2)cc1C#Cc1cnc2[nH]ncc2c1 (centres unmarked)
// result 6.67

// query What does the data say about its pIC50? Entry: Cc1ccc(C(=O)Nc2ccc(CN3CCN(CCOCCOCCC(=O)N[C@H](C(=O)C4C[C@H](O)C[C@H]4C(=O)NCc4ccc(-c5scnc5C)cc4)C(C)(C)C)CC3)c(C(F)(F)F)c2)cc1C#Cc1cnc2[nH]ncc2c1 (some centres unmarked)
// result 6.01

// query What does the data say about its pIC50? Entry: Cc1ccc(C(=O)Nc2ccc(CN3CCN(CCCCCCCCCCCCCCC(=O)Nc4cccc5c4C(=O)N(C4CCC(=O)NC4=O)C5=O)CC3)c(C(F)(F)F)c2)cc1C#Cc1cnc2[nH]ncc2c1 (centres unmarked)
// result 6.40

// query What does the data say about its pIC50? Entry: Cc1ccc(C(=O)Nc2ccc(CN3CCN(CCOCCOCCC(=O)Nc4cccc5c4CN(C4CCC(=O)NC4=O)C5=O)CC3)c(C(F)(F)F)c2)cc1C#Cc1cnc2[nH]ncc2c1 (centres unmarked)
// result 6.54
